B1: PDS5B (parent)
chain: IYKKYALQSAAGKDAAKQIAWIKD

- Variants of: B1
- assayComment: protein stability index of a GFP-peptide fusion (GPS, HEK-293T) (PSI 1-6); higher = more stable;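 note: lentivirally expressed fusions sorted by FACS into six bins by GFP to DsRed ratio, PSI derived from sequencing read proportions per bin multiplied by bin number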
- protocolConditions: c terminus: a fixed tail appended
measurementKind: protein stability index
Output: the number by itself.

Please look up its protein stability index: "D24R"
1.97

Please look up its protein stability index: "K17W"
1.63

Please look up its protein stability index: "Q8Y"
1.69
